# credit: paper PMC2756588

The following binders are listed with their measured SPOT intensity values.
- experimentalSystem: T1, Bbc1, P47068
- T1 sequence (P47068 1-78, looked up): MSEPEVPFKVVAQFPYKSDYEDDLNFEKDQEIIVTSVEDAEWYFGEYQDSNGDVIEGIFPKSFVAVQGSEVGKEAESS
- experimentalProtocol: SPOT array
- measurementContext: median of control spots 796

Study these solved cases before continuing.
{"binder": "MTKTPETSPPKRPMG", "endpointResult": 0}
{"binder": "AAHKTKPSIPPKKVE", "endpointResult": 0}
{"binder": "QPQRTAPKPPISAPR", "endpointResult": 55}
{"binder": "RLSRLLLSLPPESFT", "endpointResult": 47}
{"binder": "SGVRLPAPPPPPRRG", "endpointResult": 0}
{"binder": "QLLNPNRRAPRRPLS", "endpointResult": 158}

Task: Given the entry FFRRSELYLPNSSKA , report its measured SPOT intensity.
Output: 19
